Attribute: 5-HT1
- Target of assay: 5-HT1A receptor (human)
- Sequence (P08908 whole entry, looked up): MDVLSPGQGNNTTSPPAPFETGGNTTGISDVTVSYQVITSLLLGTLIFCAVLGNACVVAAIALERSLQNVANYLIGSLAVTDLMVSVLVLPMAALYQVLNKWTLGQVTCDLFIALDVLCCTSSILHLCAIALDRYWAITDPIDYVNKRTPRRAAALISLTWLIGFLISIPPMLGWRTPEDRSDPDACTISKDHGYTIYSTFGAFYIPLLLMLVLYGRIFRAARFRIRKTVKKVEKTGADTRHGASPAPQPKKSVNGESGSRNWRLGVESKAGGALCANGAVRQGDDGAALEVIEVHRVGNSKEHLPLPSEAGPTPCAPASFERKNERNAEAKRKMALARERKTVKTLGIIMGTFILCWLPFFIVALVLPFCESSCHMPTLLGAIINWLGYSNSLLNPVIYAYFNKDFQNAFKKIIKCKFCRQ
- Procedure summary: primary screen, binary call; higher = more effect of the substance
- Set-up: hit call from the mean of at least two separate experiments
- Condition label: 10 µM

Reference set (6 entries):
Fc1ccc2c(C3CCNCC3)c[nH]c2c1 1 (active)
c1ccc(Nc2nncs2)cc1 0 (inactive)
Clc1ccc2nnnn2n1 0 (inactive)
O=C1CSC(Nc2ccc(F)cc2)=N1 0 (inactive)
N#Cc1ccc2ncsc2c1 0 (inactive)
c1ccc2c(N3CCNCC3)ccnc2c1 1 (active)

Exam item: 5-HT1A receptor (human) / 5-HT1 / `COc1ccccc1C1CCNCC1` : value?
Marked response: 1 (active)

Exam item: 5-HT1A receptor (human) / 5-HT1 / `O=c1[nH]c2c(s1)CCC2` : value?
Marked response: 0 (inactive)

Exam item: 5-HT1A receptor (human) / 5-HT1 / `Cc1ccc(-c2ccc(O)cc2)cc1` : value?
Marked response: 0 (inactive)

Exam item: 5-HT1A receptor (human) / 5-HT1 / `Cc1ccc(C)n1Cc1ccccc1Cl` : value?
Marked response: 0 (inactive)

Exam item: 5-HT1A receptor (human) / 5-HT1 / `C1=C[C@H]2O[C@@H]1c1ccccc12` : value?
Marked response: 0 (inactive)

Exam item: 5-HT1A receptor (human) / 5-HT1 / `COc1ccc(CN2CCNCC2)cc1F` : value?
Marked response: 0 (inactive)

###

- Target of assay: 5-HT6 receptor (human, UniProt P50406)
- Sequence (P50406 whole entry, looked up): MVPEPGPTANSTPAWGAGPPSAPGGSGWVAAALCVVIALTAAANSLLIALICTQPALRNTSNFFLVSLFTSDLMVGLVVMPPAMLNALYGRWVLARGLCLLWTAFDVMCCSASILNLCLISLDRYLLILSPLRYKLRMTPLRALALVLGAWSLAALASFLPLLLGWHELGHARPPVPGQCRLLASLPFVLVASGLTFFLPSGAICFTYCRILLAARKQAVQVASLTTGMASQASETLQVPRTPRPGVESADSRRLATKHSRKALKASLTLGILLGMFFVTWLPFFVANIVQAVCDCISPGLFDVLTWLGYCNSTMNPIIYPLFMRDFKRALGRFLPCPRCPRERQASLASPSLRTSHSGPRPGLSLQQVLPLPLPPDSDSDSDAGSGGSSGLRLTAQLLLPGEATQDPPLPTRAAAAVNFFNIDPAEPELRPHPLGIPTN
- Procedure summary: primary screen, binary call; higher = more effect of the substance; call rule not given here
- Set-up: hit call from the mean of at least two separate experiments
- Condition label: 10 µM
// allowed return values: True = active, False = inactive

// below: answered compounds
Compound	Class label
CC(=O)c1sc(-c2ccc(O)cc2)nc1C	True
O=C(O)C1CCCN(C(=O)N2CCCC2)C1 (stereo not drawn)	False
CS(=O)(=O)c1ccc(N2CCNCC2)cc1	False
C1=C[C@H]2O[C@@H]1c1ccccc12	False
Clc1ccc2nnnn2n1	False

Now consider the entry below.
Exam item: Per the records of this test, what outcome belongs to `c1ccc(-c2ccncc2)cc1` ?
Marked response: False

###

- Target of assay: 5-HT6 receptor (human, UniProt P50406)
- Procedure summary: primary screen, binary call; higher = more effect of the substance; call rule not given here
- Parameters: hit call from the mean of at least two separate experiments
- Condition label: 10 µM
// allowed return values: t for active, f for inactive

Compound	Class label
Nc1ccc(-c2ccccc2)cc1C(=O)O	f

Exam item: Per the records of this test, what outcome belongs to `Cn1nc(C(F)(F)F)cc1O` ?
Marked response: f

Exam item: Per the records of this test, what outcome belongs to `N#CCCN1CCc2ccccc21` ?
Marked response: f

Exam item: Per the records of this test, what outcome belongs to `COc1ccccc1CC1CCNCC1.Cl` ?
Marked response: t

Exam item: Per the records of this test, what outcome belongs to `N#Cc1ccc2ncsc2c1` ?
Marked response: f

Exam item: Per the records of this test, what outcome belongs to `Brc1ccc(-c2ccon2)cc1` ?
Marked response: f

Exam item: Per the records of this test, what outcome belongs to `O=C1CCN(c2ccccn2)CC1` ?
Marked response: f

###

- Target of assay: 5-HT1A receptor (human)
- Procedure summary: primary screen, binary call; higher = more effect of the substance; call rule not given here
- Set-up: hit call from the mean of at least two separate experiments
- Condition label: 10 µM
// allowed return values: active, inactive

// below: answered compounds
O=C1CCC(=O)N(c2ccccc2)N1 inactive
CCCN1C(=O)CC(=O)NC1=S inactive
CCn1cnc2ccccc21 inactive
CC(=O)c1ccc2c(c1)CNCC2 inactive
Cc1ccc(CCNc2ccccc2)cn1 inactive
O=C(O)c1ccc(CN2CCOCC2)cc1 inactive
COc1ccccc1CC1CCNCC1.Cl active

Now consider the entry below.
Exam item: Per the records of this test, what outcome belongs to `N#CCCN1CCc2ccccc21` ?
Marked response: inactive
